Value source: PubChem BioAssay AID2060622

- System: 242566-281-R-J2-PDC complex spheroid viability;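 note: spheroids exposed to compounds for 7 days before readout; 100% = DMSO vehicle control wells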
- Run Description: Anticancer human tumor 242566-281-R-J2-PDC patient-derived pancreatic carcinoma cell line growth inhibition [CLK]
- Applied Conditions: second compound 0.316 µM; first compound 1 µM; hits give low values
Reported viability, T/C is given for each of the following molecules.
Hi! Could you send only the number? It should be in %, unit omitted.

Some molecules with recorded viability, T/C:
>  <Molecule>
O=c1[nH]cc(F)c(=O)[nH]1 + CNC(=O)c1ccc(Nc2nc(OC3CCCC3)c3c(-c4ccc5nc(C)oc5c4)c[nH]c3n2)c(OC)c1

>  <viability, T/C [%]>
74

$$$$
>  <Molecule>
CCCS(=O)(=O)Nc1ccc(F)c(C(=O)c2c[nH]c3ncc(-c4ccc(Cl)cc4)cc23)c1F + CN1CCN(c2cc(C(=O)Nc3cc4cc(-c5cnn(C)c5)ccc4cn3)ccn2)CC1

>  <viability, T/C [%]>
40.5

$$$$

Attention now shifts to the item below.
Documented viability, T/C of COC1C=CCC(C)C(C)S(=O)(=O)NC(=O)c2ccc3c(c2)N(CC2CCC21)CC1(CCCc2cc(Cl)ccc21)CO3 (stereo not drawn) + CN1CCN(c2cc(C(=O)Nc3cc4cc(-c5cnn(C)c5)ccc4cn3)ccn2)CC1 : 16.1
